I'd appreciate it if you could supply Corn plant response rating values for the items below.
system: corn; assay: Test B pre/postemergence corn; type: in vivo, Zea mays; conditions: Preemergence, Rate 500 g/ha; scale of 0 to 10 where 0 is no effect and 10 is complete control
Give bare numbers.

Example results:
Smiles entry	Target under test	Reported value
COC(=O)CCCn1c(=O)on(C(=O)N(c2ccc(Cl)cc2)C(C)C)c1=O	corn	0
CCCCCCn1c(=O)on(C(=O)N(c2ccccc2)C(C)C)c1=O	corn	0
CC(C)N(C(=O)n1oc(=O)n(COCc2ccccc2)c1=O)c1ccccc1	corn	3
COCCOCn1c(=O)on(C(=O)N(c2ccccc2)C(C)C)c1=O	corn	9
CC(C)N(C(=O)n1oc(=O)n(C(CF)CF)c1=O)c1ccc(F)cc1	corn	7

Let's switch to this compound now.
Query string: # lookup: Corn plant response rating of CC(C)N(C(=O)n1oc(=O)n(CC2=CCCN(C)C2)c1=O)c1ccccc1
Result string: 0
